Test system: parental HEK cells
Assay: HEK parental Agonist Counterscreen Assay (non-transfected cells)
Type: cell-based
Details: HEK Agonist Activity
From the text: The high control for the agonist counterscreen was Forskolin not acetylcholine.
Please assign Not fulfilled whenever Lipophilic Efficiency (logD) is at or above 2, and Fulfilled whenever it is below.

* CC1=CN=C(CCc2ccc(F)c3ccccc23)C1 | Fulfilled
* Cc1ccc(SCC(=O)Nc2nnc(-c3ccccc3Cl)o2)cc1 | Fulfilled
* O=C(Cn1ccc2ccccc21)NCCn1cnc(-c2ccccc2)cc1=O | Not fulfilled
* CC(C)C(CC(=O)Cc1cccc2ccccc12)C(=O)Nc1cccc(C#N)c1 (stereo not drawn) | Fulfilled
* Cn1c(CC(=O)NNC(=O)CSc2ccc3ccccc3c2)nc2ccccc21 | Fulfilled
* COc1ccc(C2(C)NC(=O)C(CC(=O)NCCc3ccccc3)C2=O)cc1 (stereo not drawn) | Not fulfilled
* CC(NC(=O)CN1C(=O)c2cccc([N+](=O)[O-])c2C1=O)c1ccc(Cl)cc1Cl (stereo not drawn) | Fulfilled
* O=C(CCc1nc2cccnc2n1Cc1cccs1)NCCc1ccccc1 | Fulfilled
* COc1ccc(NC(=O)NCC2CC(=O)N(c3ccccc3)C2)cc1 (stereo not drawn) | Not fulfilled
* CC(C)CCNC(=O)C1C2C=CC3(CN(Cc4ccccc4Cl)C(=O)C13)O2 (stereo not drawn) | Not fulfilled
* CCOc1nn(CC)cc1-c1nnc(SCc2ccc(C(=O)OC)cc2)n1C | Fulfilled
* C=C(CCc1cccc(CC)c1)C(C)C1CCC(Cc2ccccc2C)C1=C (stereo not drawn) | Not fulfilled
* COc1ccc(C2(C)NC(=O)N(CC(=O)NC3CCCC3)C2=O)cc1 (stereo not drawn) | Not fulfilled
* O=C(NCCc1ccc(Cl)cc1)c1ccc(N2CC3CC(C2)c2cccc(=O)n2C3)c(NS(=O)(=O)c2ccc3c(c2)OCCO3)c1 (stereo not drawn) | Fulfilled
* Cc1ccc(S(=O)(=O)NC(=O)NC(C)Cc2ccccc2)cc1 (stereo not drawn) | Not fulfilled
* Cc1ccc(C)c(C(=O)CCC(=O)NNC(=O)c2cc(C)oc2C)c1 | Not fulfilled
* CCC1CCCCN1C(=O)CN1C(=O)NC(C)(c2ccc3ccccc3c2)C1=O (stereo not drawn) | Fulfilled
* O=C(CN1CCCN(Cc2ccc(F)cc2Cl)C1=O)NC1CCCCCC1 | Fulfilled
